# Target: 5-hydroxytryptamine receptor 1A (Homo sapiens) (UniProt P08908)
# Sequence (whole entry): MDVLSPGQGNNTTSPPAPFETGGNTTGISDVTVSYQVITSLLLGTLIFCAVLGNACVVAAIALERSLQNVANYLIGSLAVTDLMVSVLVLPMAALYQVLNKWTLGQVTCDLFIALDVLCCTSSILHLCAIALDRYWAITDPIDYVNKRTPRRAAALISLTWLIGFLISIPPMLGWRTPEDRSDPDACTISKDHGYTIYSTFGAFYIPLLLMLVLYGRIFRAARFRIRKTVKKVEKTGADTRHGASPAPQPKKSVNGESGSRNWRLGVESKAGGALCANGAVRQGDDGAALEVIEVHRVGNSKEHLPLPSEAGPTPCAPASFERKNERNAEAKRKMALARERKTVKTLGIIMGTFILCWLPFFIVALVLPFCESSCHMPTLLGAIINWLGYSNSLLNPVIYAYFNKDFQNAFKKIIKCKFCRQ
# Method notes: Percent efficacy against human 5-hydroxytryptamine 1A receptor relative to maximal 5-HT response
# Format: functional
Threshold check on Efficacy: strictly below 90% is 1 (yes); on or above 90% is 0 (no).

Sample answers from the record:
>>> assigned_category("CC(C)NCC(O)COc1cccc2[nH]ccc12 (configuration not stated)")
"1 (yes)"
>>> assigned_category("OC(COCc1ccccc1)CN1CCC2(CC1)OCc1c2ccc2ccccc12 (configuration not stated)")
"0 (no)"
>>> assigned_category("O[C@H](COc1ccccc1)CN1CCC2(CC1)OCc1c2ccc2ccccc12")
"1 (yes)"
>>> assigned_category("CCc1cccc(OC[C@@H](O)CN2CCC3(CC2)OCc2c3ccc3ccccc23)c1")
"1 (yes)"

Inquiry: API: query returns whether the compound falls strictly under 90% in Efficacy. Query: OC(CCc1ccccc1)CN1CCC2(CC1)OCc1c2ccc2ccccc12 (configuration not stated)
Reply text: 1 (yes)

Inquiry: Lab log: compare recorded Efficacy with 90%; is it strictly lower for O[C@H](COc1ccccc1F)CN1CCC2(CC1)OCc1c2ccc2ccccc12 ?
Reply text: 0 (no)
